Experiment: Pharmacokinetics of compound II and boosting effect of ritonavir in fed male beagle dogs
Format: in vivo
Settings: male, beagle, dog, plasma, po, 10 mg/kg, 10 mg/kg compound II single oral, with Ritonavir 10 mg/kg twice daily
property: AUC(0-inf) (ng·h/mL)
Write the number in ng·h/mL without appending the unit.

AUC(0-inf) for `CC(C)CN(C[C@@H](O)[C@H](Cc1ccccc1)NC(=O)O[C@H]1CO[C@H]2OCC[C@H]21)S(=O)(=O)c1ccc2nc(NC3CCN(C4CCCC4)CC3)sc2c1` ?
4370

* * *

Assay: Pharmacokinetics of compound II and boosting effect of ritonavir in fed male beagle dogs
Format: in vivo
Settings: male, beagle, dog, plasma, po, 10 mg/kg, 10 mg/kg compound II single oral, without Ritonavir
property: Cmax (ng/mL)
Please respond with the number in ng/mL and leave the unit unwritten.

Given the entry `CC(C)CN(C[C@@H](O)[C@H](Cc1ccccc1)NC(=O)O[C@H]1CO[C@H]2OCC[C@H]21)S(=O)(=O)c1ccc2nc(NC3CCN(C4CCCC4)CC3)sc2c1` , report its measured Cmax.
123

* * *

Test system: clinically isolated HIV strain A
Assay: Cellular anti-viral assay in MT4-LTR-EGFP cells, mutant strain A
Format: cell-based
Details: Human immunodeficiency virus 1, 72 h, read-out: pEC50 virus strain A (converted)
property: EC50 (nM)
Output spec: scalar in nM, unitless text.

# count of solved cases: 3
compound: CC(C)CN(C[C@@H](O)[C@H](Cc1ccccc1)NC(=O)O[C@H]1CO[C@H]2OCC[C@H]21)S(=O)(=O)c1ccc2nc(NC3CCN(C4CCCC4)CC3)sc2c1 [Compound 7]
EC50 [nM]: 11.7

compound: COCCN1CCC(Nc2nc3ccc(S(=O)(=O)N(CC(C)C)C[C@@H](O)[C@H](Cc4ccccc4)NC(=O)O[C@H]4CO[C@H]5OCC[C@H]54)cc3s2)C1 (stereo in doubt) [Compound 17]
EC50 [nM]: 13.2

compound: CC(C)CN(C[C@@H](O)[C@H](Cc1ccccc1)NC(=O)O[C@H]1CO[C@H]2OCC[C@H]21)S(=O)(=O)c1ccc2nc(NC3CCN(Cc4ccccc4)CC3)sc2c1 [Compound 11]
EC50 [nM]: 22.4

Kindly consider the entry below.
Tell me reported EC50 for CC(C)CN(C[C@@H](O)[C@H](Cc1ccccc1)NC(=O)O[C@H]1CO[C@H]2OCC[C@H]21)S(=O)(=O)c1ccc2nc(NC3CCN(Cc4cccnc4)C3)sc2c1 (stereo in doubt) [Compound 21] , tested with clinically isolated HIV strain A.
4.9

* * *

Assay: Pharmacokinetics of compound II and boosting effect of ritonavir in fed male beagle dogs
Type: in vivo
Settings: male, beagle, dog, plasma, po, 40 mg/kg compound II single oral, with Ritonavir 10 mg/kg twice daily
property: Cmax (ng/mL)
Answer in ng/mL, number only, no unit symbol.

Give its Cmax value. Item: `CC(C)CN(C[C@@H](O)[C@H](Cc1ccccc1)NC(=O)O[C@H]1CO[C@H]2OCC[C@H]21)S(=O)(=O)c1ccc2nc(NC3CCN(C4CCCC4)CC3)sc2c1`
4220

* * *

Assay: Plasma exposure (AUC) in single-dose, dose-escalating dog study
Format: in vivo, Beagle dogs
Conditions: beagle, oral, single dose 80 mg/kg, absence of booster, range
property: AUC

Entry CC(C)CN(C[C@@H](O)[C@H](Cc1ccccc1)NC(=O)O[C@H]1CO[C@H]2OCC[C@H]21)S(=O)(=O)c1ccc2nc(NCCN3CCCC3)sc2c1 [Reference compound having formula (III)] : reported AUC = ?
7370 to 16000 ng·h/mL

* * *

Entries and their measured EC50 follow.
Tested on: clinically isolated HIV strain C
Experiment: Cellular anti-viral assay in MT4-LTR-EGFP cells, mutant strain C
Format: cell-based
Details: Human immunodeficiency virus 1, 72 h, read-out: pEC50 virus strain C (converted)
Could you give me the number in µM? Just the number is fine.

compound: CC(C)CN(C[C@@H](O)[C@H](Cc1ccccc1)NC(=O)O[C@H]1CO[C@H]2OCC[C@H]21)S(=O)(=O)c1ccc2nc(NC3CCN(C4CCCC4)CC3)sc2c1
recorded_result: 2.88
//
compound: COCCN1CCC(Nc2nc3ccc(S(=O)(=O)N(CC(C)C)C[C@@H](O)[C@H](Cc4ccccc4)NC(=O)O[C@H]4CO[C@H]5OCC[C@H]54)cc3s2)C1 (stereo in doubt)
recorded_result: 3.39
//
compound: CC(C)CN(C[C@@H](O)[C@H](Cc1ccccc1)NC(=O)O[C@H]1CO[C@H]2OCC[C@H]21)S(=O)(=O)c1ccc2nc(NC3CCN(Cc4cccnc4)C3)sc2c1 (stereo in doubt)
recorded_result: 1.82

We now examine a further compound.
Which measured EC50 value corresponds to `CC(C)CN(C[C@@H](O)[C@H](Cc1ccccc1)NC(=O)O[C@H]1CO[C@H]2OCC[C@H]21)S(=O)(=O)c1ccc2nc(NC3CCN(Cc4ccccc4)CC3)sc2c1` ?
5.75

* * *

System: clinically isolated HIV strain A
Assay: Cellular anti-viral assay in MT4-LTR-EGFP cells, mutant strain A
Assay type: cell-based
Conditions: MT4-LTR-EGFP cells, three days, GFP signal
As shown below, each of these compounds has a reported pEC50 virus strain A value.
Output spec: single numeric token, no unit.

Answered cases to consult:
compound: CC(C)CN(C[C@@H](O)[C@H](Cc1ccccc1)NC(=O)O[C@H]1CO[C@H]2OCC[C@H]21)S(=O)(=O)c1ccc2nc(NC3CCN(C(=O)CN(C)C)CC3)sc2c1 [Compound 9]
pEC50 virus strain A: 6.99
//
compound: CC(C)CN(C[C@@H](O)[C@H](Cc1ccccc1)NC(=O)O[C@H]1CO[C@H]2OCC[C@H]21)S(=O)(=O)c1ccc2nc(NC3CCN(Cc4cccnc4)CC3)sc2c1 [Compound 14]
pEC50 virus strain A: 7.85

// next item, pEC50 virus strain A requested
Record request: pEC50 virus strain A value, item COCCN1CCC(Nc2nc3ccc(S(=O)(=O)N(CC(C)C)C[C@@H](O)[C@H](Cc4ccccc4)NC(=O)O[C@H]4CO[C@H]5OCC[C@H]54)cc3s2)CC1 [Compound 8]
6.65

* * *

Assay: Pharmacokinetics of compound II and boosting effect of ritonavir in fed male beagle dogs
Format: in vivo
Settings: male, beagle, dog, plasma, po, 10 mg/kg, 10 mg/kg compound II single oral, without Ritonavir
Description: Pharmacokinetics of Compound II and Boosting Effect of Ritonavir in Fed Male Beagle Dogs after Single Oral Administration of Compound II at 10 or 40 mg/kg. The present study was performed to study the plasma pharmacokinetics of compound II in male beagle dogs after single oral administration doses of 10 and 40 mg/kg, and to evaluate the potential boosting effect of ritonavir, dosed at 10 mg/kg twice daily, on the bioavailability of compound II. […]
property: AUC(0-inf) (ng·h/mL)
Just the number in ng·h/mL, nothing appended.

Reported AUC(0-inf) for CC(C)CN(C[C@@H](O)[C@H](Cc1ccccc1)NC(=O)O[C@H]1CO[C@H]2OCC[C@H]21)S(=O)(=O)c1ccc2nc(NC3CCN(C4CCCC4)CC3)sc2c1 [Compound 7] : what is it?
330

* * *

Experiment: Plasma exposure (AUC) in single-dose, dose-escalating dog study
Assay type: in vivo, Beagle dogs
Settings: beagle, oral single dose 80 mg/kg, with ritonavir (RTV) coadministration, mean of 4 animals
property: AUC (µg·h/mL)
Give the number; µg·h/mL is assumed, so skip it.

Consider the molecule shown here: `CC(C)CN(C[C@@H](O)[C@H](Cc1ccccc1)NC(=O)O[C@H]1CO[C@H]2OCC[C@H]21)S(=O)(=O)c1ccc2nc(NC3CCN(C4CCCC4)CC3)sc2c1` What is its recorded AUC?
23

* * *

Assay: Plasma exposure (AUC) in single-dose, dose-escalating dog study
Type: in vivo, Beagle dogs
Conditions: beagle, oral, single dose 120 mg/kg, absence of booster, range
Protocol: Studies were carried out to test for the occurrence of erythema and edema in dogs. The compound having structural formula (II) was orally administered to Beagle dogs in an appropriate formulation as a single-dose, dose-escalating study design. […] Clinical signs were recorded at least once daily for the treatment period and follow up (for at least 24 hours). […] The concentration of the compound having formula (II) in dog plasma was determined using a LC-MS/MS method. […]
property: AUC

Give its AUC value. Item: CC(C)CN(C[C@@H](O)[C@H](Cc1ccccc1)NC(=O)O[C@H]1CO[C@H]2OCC[C@H]21)S(=O)(=O)c1ccc2nc(NCCN3CCCC3)sc2c1 [Reference compound having formula (III)]
10200 to 27500 ng·h/mL

* * *

Assay: Plasma exposure (AUC) in single-dose, dose-escalating dog study
Format: in vivo, Beagle dogs
Conditions: beagle, oral single dose 40 mg/kg, with ritonavir (RTV) coadministration, mean of 4 animals
property: AUC (µg·h/mL)
Response body: numeric value in µg·h/mL, unit text excluded.

Record request: AUC value, item CC(C)CN(C[C@@H](O)[C@H](Cc1ccccc1)NC(=O)O[C@H]1CO[C@H]2OCC[C@H]21)S(=O)(=O)c1ccc2nc(NC3CCN(C4CCCC4)CC3)sc2c1 [Compound 7]
23

Values compiled from patent US8202887B2.
